Molecular target: T1, EBOV Mayinga strain GP ectodomain containing the glycan cap and mucin-like domain (Ebola virus, Mayinga strain, UniProt Q05320 33-650)
T1 chain: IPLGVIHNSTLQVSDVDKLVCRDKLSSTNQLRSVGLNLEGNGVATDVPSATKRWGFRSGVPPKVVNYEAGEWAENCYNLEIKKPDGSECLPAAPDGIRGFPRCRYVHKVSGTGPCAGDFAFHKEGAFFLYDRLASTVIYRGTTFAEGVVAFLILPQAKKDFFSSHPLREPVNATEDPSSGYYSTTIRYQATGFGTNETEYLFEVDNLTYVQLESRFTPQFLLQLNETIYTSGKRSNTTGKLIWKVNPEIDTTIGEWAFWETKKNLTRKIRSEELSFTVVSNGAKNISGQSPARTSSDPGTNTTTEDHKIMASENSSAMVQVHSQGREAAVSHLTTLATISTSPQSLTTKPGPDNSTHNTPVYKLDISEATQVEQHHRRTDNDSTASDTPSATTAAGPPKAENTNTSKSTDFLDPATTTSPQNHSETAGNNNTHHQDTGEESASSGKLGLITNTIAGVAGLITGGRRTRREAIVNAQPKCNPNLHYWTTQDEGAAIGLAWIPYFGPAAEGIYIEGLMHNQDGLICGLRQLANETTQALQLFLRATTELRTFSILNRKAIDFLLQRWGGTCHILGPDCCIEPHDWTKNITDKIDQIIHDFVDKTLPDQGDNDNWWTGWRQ
Assay: ELISA
Quick reference: EC50 of the listed items.

Record excerpt, results attached:
MR65 (antibody, V domains shown) VH: EVQLLESGGGLVQPGGSLRLSCAASGFTFSSYAMSWVRQAPGQGLEWVSGISATGGNTYYPDSVKGRFTISRDNSKNTLYLQMNSLRAEDTAVYYCARPLQFLTWFDPWGQGTLVTVSS VL: EIVLTQSPATLSLSPGERATLSCRASQSVNNFLAWYQQKPGQPPRLLIYDATNRATGIPARFSGSGSGTDFTLTISSLEPEDFAVYHCQHRSNWPSITFGQGTRLEIK : > 1000 µg/mL
MR72 human monoclonal antibody (antibody, V domains shown) VH: QLQLQESGPGLVKPSETLSLTCTVSGDSINNTNYYWAWIRQPPGKGLEYIGSIYYSGSTYYNPSLKSRVTMSVDASKNQFSLRLSSVTAADTAVYYCATHPTLGAFVLLWFGANFDHWGQGTLVTVSS VL: QAVVTQPPSVSGAPGQRVTISCTGSSSNIGANYDVHWYQQLPGTAPKLLMYSNTNRPSGVPDRFSGSKSGTSASLAITGLQAEDEADYYCQSYDNSLNSWVFGGGTQLTVL : 6.1 µg/mL
MR232 (antibody, V domains shown) VH: QLQLQESGPGLVKPSETLSLTCAVSGGSISSSGYCWGWIRQPPGKGLEWIASICSSGTTYFNSSLKSRVSISIDTSRPQFLLNLRSLTAADTAVYYCARQRMELHFLEWLFPFDSWGQGTLVTVSS VL: DIVMTQSPATLSVSPGERATLSCRASQSVSSNLAWYQQKPGQAPRLLISGASTRATGIPARFSGSGSGTEFTLTISSLQSEDFAVYYCQQYINWPCSFGQGTKVDIK : > 1000 µg/mL

Dear colleague, I am looking for the recorded EC50 of the following binder: MR144 (antibody, V domains shown) V domain 1: QVQLQESGPGLVKPSETLSLTCTVSGDSISRYYWSWIRQPPGKGLEWIGYLYYSGSTDYNPSLKSRVTISVDTSKNQFSLNLTSVTAADTAVYYCARGSSRGIGVVSHWFDPWGQGT V domain 2: SYVLTQPPSVSVAPGQTARITCGGSNMGYKSVQWYQQRPGQAPVLVVYDDTDRPSGIPERFSGSNSGATATLTISSVEAGDEADYYCQVWDSSSDHHVVFGGGTQVTVL
> 1000 µg/mL

// next record MR241 (antibody, V domains shown) VH: QVQLQESGPGLVKPSETLSLTCTVSGASISGNFWSWIRQPPGKGLEYIGYMSDIGTTNYSPSLKSRVTISVDTSKNQFSLNLTSVTAADAAVYYCARLVAVPGFFYHYYMDVWGEGTLVTVSS VL: DIVMTQSPSSVSASVGDRVTITCRASQGISGWLAWYQQKPGKAPKLLIYATSTLQSGVPSRFSGSESGTAFTLTISSLQPEDFATYYCQQANSFPLTFGGGTKVEIK
> 1000 µg/mL
